- ASSAYED TARGET: T1, biotinylated cynomolgus monkey VWF cysteine knot (CK) domain construct (cynomolgus monkey, biotinylated in vitro (BirA) on the biotinylation tag; one N-glycan)
- T1 construct: Expressed in HEK293 EBNA cells; disulfide-linked homodimer; also called cyno VWF CK; cyno VWF CK domain; not shown: in vitro biotinylation tag, HRV-3C site and 3 VWF residues before the CK domain
- T1 chain: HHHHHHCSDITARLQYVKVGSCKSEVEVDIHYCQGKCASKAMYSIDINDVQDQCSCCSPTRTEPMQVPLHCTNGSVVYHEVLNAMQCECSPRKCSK
- ASSAY OVERVIEW: SPR, scFv captured via anti-SV5, CK domain injected, pH 7.4, apparent Kd;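 also: scFvs from crude yeast supernatants printed on an amine-coupled anti-SV5 lawn, Kd computed as koff over kon, likely overestimating affinity because the CK construct is dimeric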
pKd: −log10 of the molar value.
Entries and their pKd values follow.

{"columns": ["BINDER", "pKd"],
 "data": [
  ["Lib4_P2_A3_scFv (scFv, VH-linker-VL; not shown: C-terminal 3xFLAG and SV5 tags) scFv: QVQLQESGPGLVKPSQTLSLTCTVSGVSLSTSDYSWSWIRQPPGKGLEWIGYISPPGRSDYNPSLKSRVTMSVDTSKNQFSLKVNSVTAADTAVYYCARHSSSGWYSTYDFDSWGQGTMVTVSSSGGSTITSYNVYYTKLSSSGTEIVMTQSPATLSLSPGERATLSCRASQNIHSNLAWYQQKPGQAPRLLIYGATTRATGIPARFSGSGSGTDFTLTISSLEPEDFAVYYCQQSYTTPLTFGGGTKVEIK", 9.41],
  ["27_Lib4_scFv (scFv, VH-linker-VL; not shown: C-terminal 3xFLAG and SV5 tags) scFv: QVQLQESGPGLVKPSQTLSLTCTVSGASFGDHYWSWIRQPPGKGLEWIGYIDATGSIDYNPSLKSRVTMSVDTSKNQFSLKVNSVTAADTAVYYCARVASYYYYMDVWGKGTTVTVSSSGGSTITSYNVYYTKLSSSGTEIVMTQSPATLSLSPGERATLSCRASQSITGSYLAWYQQKPGQAPRLLIYGASDRAPGIPARFSGSGSGTDFTLTISSLEPEDFAVYYCQQYGSFPYTFGGGTKVEIK", 9.18],
  ["Lib4_P2_H3_scFv (scFv, VH-linker-VL; not shown: C-terminal 3xFLAG and SV5 tags) scFv: QVQLQESGPGLVKPSQTLSLTCTVSGSTFGDYAWSWIRQPPGKGLEWIGYINHIGNADYNPSLKSRVTMSVDTSKNQFSLKVNSVTAADTAVYYCARDGVESPEVPNYYYYGMDVWGQGTTVTVSSSGGSTITSYNVYYTKLSSSGTEIVMTQSPATLSLSPGERATLSCRASHSIGSNLAWYQQKPGQAPRLLIYDATNRAPGIPARFSGSGSGTDFTLTISSLEPEDFAVYYCQQSYTNPTFGGGTKVEIK", 9.87]
]}
